target: GST-Xa-hAAK1 (Homo sapiens (Human)); experiment: biochemical; conditions: ATP 22 μM; GST-Xa-hAAK1 3.5 nM; room temperature for 3 hours; Caliper LabChip 3000; read-out: AAK1 IC50
Sequence (Q2M2I8 whole entry): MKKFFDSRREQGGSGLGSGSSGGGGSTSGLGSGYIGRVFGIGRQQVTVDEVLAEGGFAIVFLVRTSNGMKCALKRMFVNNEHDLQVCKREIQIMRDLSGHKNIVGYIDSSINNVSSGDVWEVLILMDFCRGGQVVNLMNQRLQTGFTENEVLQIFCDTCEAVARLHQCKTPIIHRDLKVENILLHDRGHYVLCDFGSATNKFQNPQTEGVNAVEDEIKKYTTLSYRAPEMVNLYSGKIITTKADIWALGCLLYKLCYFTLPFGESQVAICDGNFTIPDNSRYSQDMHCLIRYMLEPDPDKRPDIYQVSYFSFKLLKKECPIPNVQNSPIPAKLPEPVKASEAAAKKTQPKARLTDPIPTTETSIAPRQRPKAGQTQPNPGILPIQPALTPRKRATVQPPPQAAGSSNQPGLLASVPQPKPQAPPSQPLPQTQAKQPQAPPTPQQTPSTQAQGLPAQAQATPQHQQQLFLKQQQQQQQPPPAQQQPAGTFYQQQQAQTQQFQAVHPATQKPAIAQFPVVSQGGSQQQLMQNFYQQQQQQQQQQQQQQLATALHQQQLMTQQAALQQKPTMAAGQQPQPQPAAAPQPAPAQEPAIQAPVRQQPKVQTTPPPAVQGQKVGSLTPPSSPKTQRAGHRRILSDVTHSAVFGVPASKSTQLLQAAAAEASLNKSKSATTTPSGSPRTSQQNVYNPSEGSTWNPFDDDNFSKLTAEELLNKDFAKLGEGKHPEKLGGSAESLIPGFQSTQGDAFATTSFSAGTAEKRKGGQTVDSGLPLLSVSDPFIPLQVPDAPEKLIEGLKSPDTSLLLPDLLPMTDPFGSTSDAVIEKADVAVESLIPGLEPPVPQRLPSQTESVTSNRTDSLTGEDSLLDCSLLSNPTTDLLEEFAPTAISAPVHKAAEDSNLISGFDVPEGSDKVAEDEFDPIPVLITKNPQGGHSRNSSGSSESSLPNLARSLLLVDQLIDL
parameter-measured: IC50 (nM)
# output: bare number, implied unit nM

Which IC50 is reported for this compound? `CC(C)CCc1nc2ccc(-c3ccncc3)cc2o1`
833

Which IC50 is reported for this compound? `CC(C)C[C@@H](N)c1nc2ccc(-c3ccncc3)cc2n1C`
159

Which IC50 is reported for this compound? CC(C)CC(C)c1nc2cc(-c3ccncc3)ccc2o1 (centres unmarked)
62

Which IC50 is reported for this compound? `COCCN[C@H](CC(C)C)c1nc2cc(-c3cnco3)ccc2[nH]1`
680

Which IC50 is reported for this compound? `CC(C)C[C@@H](N)c1nc2cc(-c3ccnc(F)c3)ccc2[nH]1`
148
